TEST_DETAILS: photoluminescence quantum yield (fraction); solvent given as SMILES
CONDITION_NOTES: in CO
EXPERIMENTAL_ENDPOINT: photoluminescence quantum yield

INSERT INTO measurements (molecule, observed_value) VALUES
  ('COC(=O)c1nc2c(N(C)C)nc(N)nc2n1Cc1ccccc1', 0.39),
  ('CN(C)c1ccc(/C=C/C=C/C2=NC3C(=O)NC(N)=NC3N2[C@H]2C[C@H](O)[C@@H](CO)O2)cc1 (some centres undefined)', 0.58),
  ('O=C1c2ccccc2-c2c(-c3cc(Br)ccc3O)[nH]c(=O)n21', 0.32),
  ('CCCCCCCCN1c2ccc(C#Cc3cc(C(F)(F)F)cc(C(F)(F)F)c3)cc2Sc2cc(C=O)ccc21', 0.11),
  ('Cc1ccccc1C(=O)NN1C2=C(CC3=C1CC(C)(C)CC3=O)C(=O)CC(C)(C)C2', 0.3),
  ('CCCCc1ccc2ccc3c(CCCC)cc(CCCC)c4ccc1c2c34', 0.6),
  ('Cc1ccccc1C1=C2C=c3c(oc4c3ccc3ccccc34)=[N+]2[B-](F)(F)n2c1cc1c3ccc4ccccc4c3oc12', 0.48),
  ('CN(C)c1c2ccccc2cc2ccccc12', 0.008),
  ('CN(C)c1ccc2nc(-c3ccc(C(=O)O)cc3)sc2c1', 0.84),
  ('Cc1ccc(C2=C3C=CC(Nc4ccccc4)=[N+]3[B-](F)(F)n3c(Nc4ccccc4)ccc32)cc1', 0.45),
  ('CC1=CC(/C=C/c2ccc(OCCCN=[N+]=[N-])cc2)=[N+]2C1=C(c1ccccc1)c1c(C)cc(C)n1[B-]2(F)F', 1),
  ('CC1(C)Cc2c(c3ccccc3c3nc4c5c(c6ccccc6c4nc23)OC(C)(C)C5)O1', 1),
  ('c1ccc2c(-c3cc(-c4nccs4)nc(-c4nccs4)c3)cccc2c1', 0.207),
  ('CN(C)c1ccc(/C=C/c2ccc(-c3nc(C#N)c(C#N)n3C)cc2)cc1', 0.002),
  ('COc1ccc(C#Cc2nc3ccccc3nc2-c2cn(C)c3ccccc23)cc1', 0.01),
  ('O=[N+]([O-])c1ccc(S(=O)(=O)Nc2ccc(C#Cc3ccc4ccc5ccc(C#Cc6ccc(NS(=O)(=O)c7ccc([N+](=O)[O-])cc7[N+](=O)[O-])cc6)c6ccc3c4c56)cc2)c([N+](=O)[O-])c1', 0.003),
  ('CN(C)c1ccc2nc(-c3ccc(C(=O)OC(C)(C)C)cc3)sc2c1', 0.72),
  ('C1=Nc2cccc3cccc(c23)N1', 0.0005),
  ('Cc1cc(C)c(B(c2cc(C#Cc3ccccc3)sc2-c2sc(C#Cc3ccccc3)cc2P(=O)(c2ccccc2)c2ccccc2)c2c(C)cc(C)cc2C)c(C)c1', 0.61),
  ('Cc1ccc(C2=C3C=CC(c4ccccc4)=[N+]3[B-](F)(F)n3c(Cl)ccc32)cc1', 0.037),
  ('N#Cc1ccc(/C=C/c2ccc3ccc4cccc5ccc2c3c45)cc1', 0.26),
  ('CCC1=C(C)C2=C(C)c3c(I)c(I)c(I)n3[B-](F)(F)[N+]2=C1C', 0.051),
  ('CC(C)(C)C1Nc2ccccc2C(=O)N1Cc1ccccc1 (centres undefined)', 0.034),
  ('Cc1cc2c(o1)=CC1=C(C(F)(F)F)c3cc4oc(C)cc4n3[B-](F)(F)[N+]=21', 0.7),
  ('CCCn1c2cccc3oc4cccc5oc6cccc1c6[c+](c45)c32', 0.54),
  ('CN(C)c1ccc(C#Cc2ccc3ccc4ccc(C#Cc5ccc(N(C)C)cc5)c5ccc2c3c45)cc1', 0.256),
  ('COc1ccc(-c2nc(-c3cccc(C#N)c3)[nH]c2-c2ccc(OC)cc2)cc1', 0.06),
  ('COc1cc2c(cc1C=C(C#N)C#N)c1ccccc1n2C', 0.003),
  ('O=C1CCCC2=C1CC1=C(CCCC1=O)N2NC(=O)c1ccccc1', 0.34),
  ('F[B-]1(F)n2c(Cl)ccc2C(c2c(Cl)cccc2Cl)=C2C=CC(NCc3ccccc3)=[N+]21', 0.72),
  ('O=C(O)COc1ccc2[nH]c3c(c2c1)CCCC3=O', 0.051),
  ('CCOC(=O)c1ccc(O)c(-c2[nH]c(=O)n3c2-c2ccccc2C3=O)c1', 0.4),
  ('C(#Cc1ccccc1)c1ccccc1', 0.0015),
  ('COc1ccc(OC)c(C=O)c1', 0.22),
  ('COc1cc2c3cc(OC)c(OC)cc3c3cc4c(C)cc(=O)oc4cc3c2cc1OC', 0.02),
  ('COc1ccccc1-c1nc(-c2ccccc2)c(-c2ccccc2)[nH]1', 0.29),
  ('CN(C)c1ccc(/C=C/c2nc3ccccc3s2)cc1', 0.003),
  ('CC1(C)C(/C=C/C2=C(Oc3ccc(CCN=C=S)cc3F)C(=C/C=C3/N(CCCS(=O)(=O)[O-])c4ccccc4C3(C)C)/CCC2)=[N+](CCCS(=O)(=O)[O-])c2ccccc21', 0.14),
  ('Cc1ccccc1C1=C2C=c3c(oc4ccc(C(C)(C)C)cc34)=[N+]2[B-](F)(F)n2c1cc1c3cc(C(C)(C)C)ccc3oc12', 0.86);

###

TEST_DETAILS: photoluminescence quantum yield (fraction); solvent given as SMILES
CONDITION_NOTES: in CCO
EXPERIMENTAL_ENDPOINT: photoluminescence quantum yield

INSERT INTO measurements (molecule, observed_value) VALUES
  ('CC(=O)c1c2c(cc3ccc(N(C)C)cc13)CCC2', 0.05),
  ('c1ccc(-c2cc(-c3ccc(-c4nc(-c5ccccn5)c(-c5ccccn5)[nH]4)cc3)cc(-c3ccccn3)n2)nc1', 0.202),
  ('CCOC(=O)C1=C(C)NC2=C(C(=O)c3ccccc32)C1c1ccc(N(C)C)cc1 (stereo not given)', 0.092),
  ('Cc1cc(C)c2cc3cc(C)ncc3cc2c1', 0.44),
  ('COc1ccc2c(-c3nc(-c4cccc(Br)c4)no3)cc(=O)oc2c1', 0.41);

###

TEST_DETAILS: photoluminescence quantum yield (fraction); solvent given as SMILES
CONDITION_NOTES: in O
Property: photoluminescence quantum yield; scope: individual molecules
EXPERIMENTAL_ENDPOINT: photoluminescence quantum yield

INSERT INTO results (smiles_text, observed_value) VALUES
  ('O=Cc1ccc(-c2cccc(-c3nc4ccccc4s3)c2O)o1', 0.01),
  ('Cc1cc(N(C)C)ccc1C1=C2C=CC(=[N+](C)C)C=C2[Si](C)(C)c2cc(N(C)C)ccc21', 0.001),
  ('CC[N+]1=C(/C=C/c2c(C)nn3c(-c4ccc(OC)cc4)ccnc23)C(C)(C)c2ccccc21', 0.42),
  ('N#CC(C#N)=Cc1ccc(-c2cccc(-c3nc4ccccc4s3)c2O)s1', 0.01),
  ('CCOC(=O)CC[N+]1=c2cc3c(cc2CCC1)=Cc1c(c2ccc(N(C)C)cc2oc1=O)O3', 0.03),
  ('CC/[NH+]=c1\cc2oc3cc(NCCO)c4ccccc4c3nc-2cc1C', 0.36),
  ('O=S(=O)([O-])c1ccc([O-])c2ccccc12', 0.26),
  ('[NH3+]c1cc([NH3+])cc(-c2[nH+]c3ccccc3s2)c1', 0.008),
  ('CCOC(=O)CC[N+]1=c2cc3c(cc2CCC1)=Cc1c(c2cc4c5c(c2oc1=O)CCCN5CCC4)O3', 0.002),
  ('Nc1nc2ccccc2[n+]([O-])n1', 0.0367);

###

Listed here: items and their measured photoluminescence quantum yield.
TEST_DETAILS: photoluminescence quantum yield (fraction); solvent given as SMILES
CONDITION_NOTES: in Cc1ccccc1
EXPERIMENTAL_ENDPOINT: photoluminescence quantum yield

INSERT INTO measurements (smiles_text, observed_value) VALUES
  ('CCN(CC)c1ccc([N+]2=Cc3ccc4c5c(ccc4c3O[B-]2(c2ccccc2)c2ccccc2)C=[N+](c2ccc(N(CC)CC)cc2)[B-](c2ccccc2)(c2ccccc2)O5)cc1', 0.4),
  ('COc1ccc2c(c1)c1cc(OC)ccc1n2-c1nc2ccccc2nc1-n1c2ccc(OC)cc2c2cc(OC)ccc21', 0.13),
  ('Cc1ccc(-n2c(-c3ccccc3NS(=O)(=O)c3ccc(C)cc3)nc3c4ccccc4c4ccccc4c32)cc1', 0.007),
  ('N#Cc1cc(-n2c3ccccc3c3ccccc32)c(-n2c3ccccc3c3ccccc32)cc1-c1cc(-n2c3ccccc3c3ccccc32)c(-n2c3ccccc3c3ccccc32)cc1C#N', 0.46),
  ('COc1cc2c(cc1-c1ccccc1)Cc1c3c(c4c(c1-2)-c1cc(OC)c(-c2ccccc2)cc1C4)C(=O)N(CCC(C)C)C3=O', 0.48),
  ('CC1=[N+]2C(=C(c3ccc(-c4c5ccccc5c(-c5ccccc5)c5ccccc45)cc3)c3ccc(C)n3[B-]2(F)F)C=C1', 0.259),
  ('CC1=C(c2ccccc2)C(C)=[N+]2C1=C(c1ccccc1)c1c(C)c(-c3ccccc3)c(C)n1[B-]2(F)F', 0.325);
